# METHOD_SUMMARY: NCI Yeast Anticancer Drug Screen. Data for the mlh1 strain (AID 171)
# ASSAY_CONTEXT: S. cerevisiae mlh1 strain growth inhibition; at 11.0 µM; active compounds read high
About 79,000 compounds went through this panel and 15% of them were active in at least one assay; those are over-represented in the sample as a whole.
Binary call on growth inhibition: Satisfied from 10% upward, Not satisfied beneath that.

>  <COMPOUND>
Cc1cc2c3ccccc3c3ccccc3c2nn1

>  <CLASS_ASSIGNMENT>
Not satisfied

$$$$
>  <COMPOUND>
CCCCN(CCCC)C(=O)/C=C/c1ccccc1

>  <CLASS_ASSIGNMENT>
Not satisfied

$$$$
>  <COMPOUND>
O=C1c2ccccc2C(=O)c2cc(CCl)ccc21

>  <CLASS_ASSIGNMENT>
Not satisfied

$$$$

Decide: is the reported value of growth inhibition for CCCC/C([O-])=C1/C(=O)N(c2ccccc2)N=C1C.CCCC/C([O-])=C1/C(=O)N(c2ccccc2)N=C1C.[Cu+2] equal to or greater than 10%?
Not satisfied

Decide: is the reported value of growth inhibition for CCCC(O)C1CC(C(C)C)CCC1C (stereo unspecified) equal to or greater than 10%?
Not satisfied

Decide: is the reported value of growth inhibition for COc1cc2ccnc(-c3c4ccccc4c(N)c4c(OC)c(OC)ccc34)c2cc1OC equal to or greater than 10%?
Not satisfied

Decide: is the reported value of growth inhibition for CCN(CC)CCOc1cc(C)c2cc(Cc3ccccc3)ccc2n1 equal to or greater than 10%?
Satisfied

Decide: is the reported value of growth inhibition for O=C(CSC(=S)N1CCCCC1)Nc1nc2c(s1)CCCC2 equal to or greater than 10%?
Satisfied

Decide: is the reported value of growth inhibition for O=[N+]([O-])/C=C/c1cc(Cl)c(/C=C/[N+](=O)[O-])cc1Cl equal to or greater than 10%?
Satisfied

Decide: is the reported value of growth inhibition for O=C1c2cccnc2C(=O)C2C3C=CC(C3)C12 (stereo unspecified) equal to or greater than 10%?
Satisfied

Decide: is the reported value of growth inhibition for CC(NCCN(C)C)C1CCC2C3CCc4cc(O)ccc4C3CCC12C (stereo unspecified) equal to or greater than 10%?
Satisfied
